Documented composite z-score across a set of compounds
# STUDY_TARGET: Fibroblast growth factor 10 (Homo sapiens) (UniProt O15520)
# Sequence (O15520 whole entry, looked up): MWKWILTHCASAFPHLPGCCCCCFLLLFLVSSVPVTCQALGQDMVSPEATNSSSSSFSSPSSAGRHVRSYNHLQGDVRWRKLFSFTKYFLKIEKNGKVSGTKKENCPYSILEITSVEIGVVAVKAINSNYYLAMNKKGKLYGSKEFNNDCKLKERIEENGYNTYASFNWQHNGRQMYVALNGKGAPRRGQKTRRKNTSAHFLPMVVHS
# PROTOCOL_TEXT: FGF10 binders on small-molecule microarrays, primary screen, biochemical, small-molecule microarray, 635 nm fluorescence (AID 1102)
# SETTINGS: FGF10 binding, fluorescence 635 nm, higher = more signal

COMPOUND	PROPERTY_MEASURED	MEASURED_VALUE
COC(=O)c1c(CC[C@@H](CO)NC(=O)N[C@H](Cn2cc(-c3cncn3C)nn2)C(C)C)oc(C(C)=O)c1C(=O)OC	composite z-score	0.512
COC(=O)C1=CC(c2ccc(CO)cc2)=CC(c2cccs2)N(Cc2cccc(OC(F)(F)F)c2)C=C1C(=O)OC (stereo not given)	composite z-score	0.945
C=C(COC)/C(=C/C[C@@H](OC(=O)c1ccncc1)c1ccc(OCCO)cc1)c1cc(C(=O)OC)ccc1OC	composite z-score	0.635
COc1cc([C@@H]2N[C@H](C(=O)O)Cc3c2[nH]c2ccccc32)cc(OC)c1OC	composite z-score	0.644
CO[C@H]1COC(=O)[C@@H](OCc2ccccc2)C=C[C@H](C)[C@@H](OC)COC(=O)[C@H](OCc2ccccc2)C=C[C@@H]1C	composite z-score	0.181
COC(=O)[C@@]1(Cc2ccccc2CN=[N+]=[N-])N=C(c2ccc(OCCCO)cc2)O[C@H]1c1ccccc1N=[N+]=[N-]	composite z-score	0.752
CCC(=O)[C@]12O[C@@]3([C@@H]4C(=O)OCC[C@@H]41)N(CC)C(C)=C(C(=O)OC)[C@@H](c1ccccc1)N3C2=O	composite z-score	0.162
CCC(=O)[C@]12O[C@@]3([C@@H]4C(=O)OCC[C@@H]41)N(Cc1ccccc1)C(C)=C(C(=O)OC)[C@@H](c1ccccc1)N3C2=O	composite z-score	0.0848

input: Please tell me: composite z-score of `CCCCO[C@H]1C[C@H]2C(Br)=C[C@@]1(CO)C(=O)[C@]21CO1` , system Fibroblast growth factor 10 (Homo sapiens) (UniProt O15520)?
output: 0.136

input: Input O=C1C2C=CC(C(O)C#Cc3ccccc3)N(Nc3ccccc3)C2C(=O)N1c1ccccc1 (stereo not given)
output: -0.102

input: Input `C[N+](C)(C)CCCCNC(=O)[C@@H]1C[C@@H]2C(=O)N3CCC[C@H]3C(=O)N2[C@@H]1c1cccc(OCCO)c1`
output: 0.455

input: Input CCC1=C2CN(Cc3ccccc3Br)[C@@H]([C@@H](O)Cc3ccccc3)C2C=CCC1 (stereo not given in full)
output: 0.597

input: Input CC(C)N1CC=CC23O[C@@H]4/C=C\CCCOC(=O)C4[C@H]2C(=O)N(CCO)[C@@H]3C1=O (stereo not given in full)
output: -0.363
